Hey, just so you know, these numbers are from ChEMBL document CHEMBL5604062.

Biological target: Nonstructural protein 3 (Zika virus, UniProt A0A024AXB9)
Sequence (A0A024AXB9 whole entry): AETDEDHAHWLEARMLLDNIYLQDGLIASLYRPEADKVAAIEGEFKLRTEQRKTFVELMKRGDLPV
Assay: Functional biochemical assay to identify treatments for viral infectious disease that targets Zika NS2B-NS3 protease. Utilizing a direct enzyme activity measurement method, reading the fluorescence intensity is used to characterize the relative potency of inhibitors as IC50.
Set-up: species or system PRVABC59
pIC50: −log10 of the molar value.
assay endpoint: pIC50

sample_smiles=CN1CCC(c2nc(C(F)(F)F)n3c2CN(c2cccc(C(N)=O)n2)CC3)CC1 assay_endpoint=pIC50 result="< 4.00"
sample_smiles=NCc1cccc(NC(=O)[C@@H]2C[C@H](NC(=O)OCc3ccccc3)[C@H]3C[C@H]32)c1 assay_endpoint=pIC50 result="< 4.00"
sample_smiles=O=C1Cc2c(cccc2C(=O)Nc2ccc3c(c2)CNCCO3)N1 assay_endpoint=pIC50 result=5.83
sample_smiles=Cc1c(C(=O)Nc2ccc3c(c2)C(=O)NC3)cc(C2CC2)n1C assay_endpoint=pIC50 result="< 4.60"
sample_smiles=CCCCCNC(=O)c1cc(Cl)ccc1NS(=O)(=O)c1ccc(Oc2ccccc2Cl)cc1 assay_endpoint=pIC50 result="< 4.00"
sample_smiles=O=Cc1ccc(N2CCC(C(=O)N3CCC(N4CCc5ccccc5C4)CC3)CC2)cc1 assay_endpoint=pIC50 result="< 6.11"
sample_smiles=CS(=O)(=O)c1ccc(CN)cc1NC(=O)c1cc(Cl)cc(NC(=O)OCc2ccccc2)c1 assay_endpoint=pIC50 result=4.70
sample_smiles=Cc1c(C(=O)Nc2cc(C(=O)N3CC[C@H](CO)C3)ccn2)cc(C2CC2)n1C assay_endpoint=pIC50 result="< 4.60"
sample_smiles=c1cnc2[nH]cc(C3CCN(Cc4c[nH]c5ccncc45)CC3)c2c1 assay_endpoint=pIC50 result=4.13
sample_smiles=O=C1Cc2c(cccc2C(=O)NC2CC3(CCOCC3)C2)N1 assay_endpoint=pIC50 result="< 4.60"
sample_smiles=O=C(O)c1nccn2ncc(Cc3c[nH]c4ccc(Cl)cc34)c12 assay_endpoint=pIC50 result="< 4.00"
sample_smiles=Cc1oc(C(=O)Nc2cccc(CN)c2)cc1COc1ccccc1 assay_endpoint=pIC50 result="< 4.00"
sample_smiles=NCc1cccc(NC(=O)[C@@H](N)c2ccc(OCc3ccccc3)cc2)c1 assay_endpoint=pIC50 result="< 4.00"
sample_smiles=N#Cc1cc(Cl)cc(C(=O)Nc2ccc3c(c2)CNC3)c1 assay_endpoint=pIC50 result=6.56
sample_smiles=Cc1c(C(=O)Nc2cc(C(=O)N3CC[C@H](O)C3)ccn2)cc(C2CC2)n1C assay_endpoint=pIC50 result="< 4.60"
sample_smiles=CNC(=O)[C@H](Nc1cc(Cl)cc(NC(=O)OCc2ccccc2)c1)c1cccc(CN)c1 assay_endpoint=pIC50 result=5.20
sample_smiles=CNC(=O)[C@H](Nc1cc(Cl)cc(C2CC2)c1)c1ccc(-c2nn[nH]n2)cc1 assay_endpoint=pIC50 result="< 4.00"
sample_smiles=Nc1nc2ccc(NC(=O)c3cc(Cl)cc(NC(=O)OCc4ccccc4)c3)cc2[nH]1 assay_endpoint=pIC50 result="< 4.00"
sample_smiles=O=C(O)c1ccc(F)c(F)c1NS(=O)(=O)c1ccc(Oc2ccccc2Cl)cc1 assay_endpoint=pIC50 result="< 4.00"
sample_smiles=COC(=O)c1cc(Cl)ccc1NS(=O)(=O)c1ccc(Br)cc1 assay_endpoint=pIC50 result="< 4.00"
sample_smiles=N=C(N)NCCc1ccc(NC(=O)Cc2ccccc2)cc1 assay_endpoint=pIC50 result="< 3.70"
sample_smiles=N#Cc1cc(Cl)cc(C(=O)Nc2cccc(-c3nnn[nH]3)c2)c1 assay_endpoint=pIC50 result="< 4.00"
sample_smiles=O=C1Cc2c(cccc2C(=O)N[C@H]2CCC23CCOCC3)N1 assay_endpoint=pIC50 result="< 4.60"
sample_smiles=CCC1([C@H](NC(=O)OCc2ccccc2)C(=O)NCc2cccc(CN)c2)CCCCC1 assay_endpoint=pIC50 result="< 4.00"
sample_smiles=Cc1c(C(=O)Nc2cc(C3(C)OCCO3)ccn2)cc(C2CC2)n1C assay_endpoint=pIC50 result="< 4.60"
sample_smiles=O=c1oc2cccnc2n1CC=Cc1ccccc1 assay_endpoint=pIC50 result="< 4.00"
sample_smiles=CCCC[C@H](NC(C)=O)C(=O)N[C@H](C(=O)NCc1ccc(CN)cc1)c1ccc(OCc2ccccc2)cc1 assay_endpoint=pIC50 result=4.22
sample_smiles=O=C1Cc2c(cccc2C(=O)Nc2ccc(O[C@H]3CCOC3)nc2)N1 assay_endpoint=pIC50 result="< 4.60"
sample_smiles=O=C(NCC(F)(F)F)c1cc(Cl)c(F)cc1NS(=O)(=O)c1ccc(Oc2ccccc2Cl)cc1 assay_endpoint=pIC50 result=4.97
sample_smiles=N#Cc1csc(CN2CCC([C@H](NC(=O)OCc3ccccc3)C(=O)Nc3cccc(CN)c3)CC2)c1 assay_endpoint=pIC50 result="< 4.00"
sample_smiles=CCc1nc2c(C(=O)Nc3ccc4c(c3)CNC4)cc(Br)cc2[nH]1 assay_endpoint=pIC50 result=6.73
sample_smiles=O=C(Nc1ccc2c(c1)CNC2)c1cc(F)cc(C=C2CCS(=O)(=O)CC2)c1 assay_endpoint=pIC50 result=6.19
sample_smiles=Cc1nnc(SC[C@H]2CCCN2C(=O)Nc2ccc3c(c2)CNC3)s1 assay_endpoint=pIC50 result=5.24
sample_smiles=O=C(N[C@@H](C(=O)NCc1ccncc1)c1ccc(OCc2ccccc2)cc1)OCc1ccccc1 assay_endpoint=pIC50 result="< 4.00"
sample_smiles=C[C@](N)(C(=O)Nc1ccc2c(c1)C(=O)OC2)c1cccs1 assay_endpoint=pIC50 result="< 4.60"
sample_smiles=O=C(O)c1cc(Cl)ccc1NS(=O)(=O)c1ccc(-c2cncs2)cc1 assay_endpoint=pIC50 result=4.46
sample_smiles=COCc1cc(Cl)ccc1NS(=O)(=O)c1ccc(Oc2ccccc2Cl)cc1 assay_endpoint=pIC50 result="< 4.00"
sample_smiles=N[C@@H]1CC[C@H](CCNC(=O)c2cc(Cl)cc(NC(=O)OCc3ccccc3)c2)C1 assay_endpoint=pIC50 result=4.21
sample_smiles=Cc1nnsc1CN1CCC([C@@H](NC(=O)OCc2ccccc2)C(=O)Nc2cccc(CN)c2)CC1 assay_endpoint=pIC50 result="< 4.00"
sample_smiles=CC(C)NC(=O)[C@H](Nc1ccc2c(c1)CN(C)C2(C)C)c1cc(Cl)cc2[nH]ncc12 assay_endpoint=pIC50 result=5.42
sample_smiles=CNC(=O)[C@H](Nc1ccc(-c2nn[nH]n2)cc1)c1cc(Cl)cc(NC(=O)OCc2ccccc2)c1 assay_endpoint=pIC50 result="< 4.00"
